System: Pseudomonas aeruginosa
assayOverview: Antimicrobial activity against Ceftazidime non-susceptible Pseudomonas aeruginosa assessed as resistant isolate by broth microdilution method
Assay type: functional

compound	Activity
C[C@@H](O)[C@H]1C(=O)N2C(C(=O)O)=C(S[C@@H]3CN[C@H](C(=O)N(C)C)C3)[C@H](C)[C@H]12	35.5%
CO/N=C(\C(=O)N[C@@H]1C(=O)N2C(C(=O)[O-])=C(C[N+]3(C)CCCC3)CS[C@H]12)c1csc(N)n1	26.4%
CC(C)(O/N=C(\C(=O)N[C@@H]1C(=O)N2C(C(=O)[O-])=C(C[n+]3ccccc3)CS[C@H]12)c1csc(N)n1)C(=O)O	76.4%
C[C@@H](O)[C@H]1C(=O)N2C(C(=O)O)=C(SCCNC=N)C[C@H]12 [IMIPENEM ANHYDROUS]	36.4%

----------
System: Escherichia coli
assayOverview: Antimicrobial activity against ESBL producing Escherichia coli by broth microdilution method
Type: functional

molecule	MIC90
CC(C)(O/N=C(\C(=O)N[C@@H]1C(=O)N2C(C(=O)[O-])=C(C[n+]3ccccc3)CS[C@H]12)c1csc(N)n1)C(=O)O [CEFTAZIDIME]	> 32 µg/mL
CO/N=C(\C(=O)N[C@@H]1C(=O)N2C(C(=O)[O-])=C(C[N+]3(C)CCCC3)CS[C@H]12)c1csc(N)n1	> 32 µg/mL
CO/N=C(\C(=O)N[C@@H]1C(=O)N2C(C(=O)O)=C(CSc3nc(=O)c(O)nn3C)CS[C@H]12)c1csc(N)n1 [CEFTRIAXONE]	> 64 µg/mL

Cited source for all entries: ChEMBL document CHEMBL1275550
